All figures here come from patent US20070202552A1.

# tested.target: T1, human HER-2 extracellular domain (HER-2 ECD) (human, UniProt P04626 23-646)
# T1 construct: range 23-646; also called erbB2; HER2 protein
# assay.notes: competitive Fab-phage ELISA
// returns no (0) unless IC50 is strictly below 6 nM, in which case yes (1)

Quick check: IC50 of B15 (Fab, V domains shown) VH: EVQLVESGGGLVQPGGSLRLSCAASGFSISSSYIHWVRQAPGKGLEWVASIYPYSGYTSYADSVKGRFTISADTSKNTAYLQMNSLRAEDTAVYYCARWWSSALDYWGQGTLVTVSS VL: DIQMTQSPSSLSASVGDRVTITCRASQDVNTAVAWYQQKPGKAPKLLIYSASSLYSGVPSRFSGSRSGTDFTLTISSLQPEDFATYYCQQSYYSPSTFGQGTKVEIK under 6 nM? yes (1)

Same again, this time with B1 (Fab, V domains shown) VH: EVQLVESGGGLVQPGGSLRLSCAASGFYISSSYIHWVRQAPGKGLEWVASIYPYSGYTSYADSVKGRFTISADTSKNTAYLQMNSLRAEDTAVYYCARYYSYAFDYWGQGTLVTVSS VL: DIQMTQSPSSLSASVGDRVTITCRASQDVNTAVAWYQQKPGKAPKLLIYSASSLYSGVPSRFSGSRSGTDFTLTISSLQPEDFATYYCQQSYYSPSTFGQGTKVEIK no (0)

Input B21 (Fab, V domains shown) VH: EVQLVESGGGLVQPGGSLRLSCAASGFSIYSSYIHWVRQAPGKGLEWVASIYPYSGYTSYADSVKGRFTISADTSKNTAYLQMNSLRAEDTAVYYCARWSSSGFDYWGQGTLVTVSS VL: DIQMTQSPSSLSASVGDRVTITCRASQDVNTAVAWYQQKPGKAPKLLIYSASSLYSGVPSRFSGSRSGTDFTLTISSLQPEDFATYYCQQYYYSPSTFGQGTKVEIK yes (1)

Now consider B12 (Fab, V domains shown) VH: EVQLVESGGGLVQPGGSLRLSCAASGFSISYSYIHWVRQAPGKGLEWVASIYPYSGYTSYADSVKGRFTISADTSKNTAYLQMNSLRAEDTAVYYCARWWSWAFDYWGQGTLVTVSS VL: DIQMTQSPSSLSASVGDRVTITCRASQDVNTAVAWYQQKPGKAPKLLIYSASSLYSGVPSRFSGSRSGTDFTLTISSLQPEDFATYYCQQYYYSPSTFGQGTKVEIK . no (0)

Field entry: B17 (Fab, V domains shown) VH: EVQLVESGGGLVQPGGSLRLSCAASGFYIYSSYIHWVRQAPGKGLEWVASIYPYSGYTSYADSVKGRFTISADTSKNTAYLQMNSLRAEDTAVYYCARWWSSGFDYWGQGTLVTVSS VL: DIQMTQSPSSLSASVGDRVTITCRASQDVNTAVAWYQQKPGKAPKLLIYSASSLYSGVPSRFSGSRSGTDFTLTISSLQPEDFATYYCQQSYYYPSTFGQGTKVEIK yes (1)

Request: B23 (Fab, V domains shown) VH: EVQLVESGGGLVQPGGSLRLSCAASGFYISYSYIHWVRQAPGKGLEWVASIYPYSGYTSYADSVKGRFTISADTSKNTAYLQMNSLRAEDTAVYYCARWWSSALDYWGQGTLVTVSS VL: DIQMTQSPSSLSASVGDRVTITCRASQDVNTAVAWYQQKPGKAPKLLIYSASSLYSGVPSRFSGSRSGTDFTLTISSLQPEDFATYYCQQSYYSPSTFGQGTKVEIK yes (1)
